B1: POU domain, class 3, transcription factor 2, residues 356 to 411; numbered along this chain, P20265 (parent)
chain: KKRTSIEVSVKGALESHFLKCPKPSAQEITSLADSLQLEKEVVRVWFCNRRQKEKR

Variants of: B1
Test: abundance fitness (aPCA) (normalised: wild type 0, dead -1); higher = more abundant; growth selection in yeast, the domain comes from the species named
Conditions: Homo sapiens
Quick rule: abundance fitness of at least -0.1 means y, below that means n.

Worked examples follow.
> print(dat)
   mutant.name  label
1         R50H      n
2         F18W      n
3          T4S      y
4         R44P      n
5         K53G      n

Check the entry K2N : does abundance fitness equal or exceed -0.1?
n

Another: L32M
y

Another: K23E
y

Another: S16M
y

Another: C48H
n

Another: K2G
y
